Data credit: patent US12448369B2

# Tested on: Porcine atria myofibrils (atrial myosin ATPase)
# protocol_details: Myofibril ATPase assay, porcine atria myofibrils
# Type: biochemical
# setup_conditions: porcine atria myofibrils; Y75 value (75% activity relative to no compound)
Response field label takes yes when Atrial EC25 is strictly below 800 nM and no in all other cases.

Example cases with answers are listed next.
In [3]: df
Out[3]:
                                   compound  qualitative_label
0  C[C@H](NC(=O)Cc1c(C(F)(F)F)c2c(C3CC3)nccc2[nH]c1=O)c1ccc(F)cc1F                 no
1  Cc1c([C@@H](C)C(=O)N[C@@H](C)c2ccc(F)cc2F)c(=O)[nH]c2ccnc(F)c12 (single isomer, unassigned)                yes
2  COc1ccc([C@@H](C)NC(=O)Cc2c(C)c3c(C)nccc3[nH]c2=O)cc1 (single isomer, unassigned)                 no
3  COc1nccc2[nH]c(=O)c(CC(=O)N[C@H](C)c3ncc(C#N)cc3F)c(C(F)(F)F)c12 (single isomer, unassigned)                yes
4  Cc1nccc2[nH]c(=O)c(CC(=O)N[C@@H](CO)c3ccncc3)c(C)c12                 no
5  Cc1nccc2[nH]c(=O)c(CC(=O)N[C@@H]3COc4cc(C#N)cc(F)c43)c(C)c12 (single isomer, unassigned)                yes
6  Cc1c(CC(=O)N[C@@H](C)c2ccc(F)cc2F)c(=O)[nH]c2ccnc(Nc3ccccc3)c12                 no
7  Cc1nccc2[nH]c(=O)c(CC(=O)N[C@H](C)c3ccc(O)cc3)c(C)c12 (single isomer, unassigned)                 no

Now, please, on to the next compound.
// query Take the compound Cc1nccc2[nH]c(=O)c(CC(=O)N[C@H](CO)c3ccncc3)c(C)c12 and say whether its Atrial EC25 is less than 800 nM.
// result no
